Origin of the recorded values: PubChem BioAssay AID248

- Test system: L1210 leukemia ip in BDF1 mice, survival T/C
- assay.explanation: NCI In Vivo Anticancer Drug Screen. Data for tumor model L1210 Leukemia (intraperitoneal) in B6D2F1 (BDF1) mice
- condition.description: endpoint: mean survival time; dose: 100.0 mg/kg/injection; schedule: Q01DX001 (ip); vehicle: carboxymethylcellulose (CMC); higher = longer survival
Toxic doses and inconclusive results are not listed.
recorded.endpoint: T/C

1) O=S(=O)(Nc1ccccc1)c1ccccc1C(O)(c1ccccc1)c1ccccc1; 106 % of control
2) CCOC(=O)/C(C)=N\Nc1ccc([N+](=O)[O-])cc1; 90 % of control
3) Nc1c(Cl)ncn2[nH]c(=O)nc12; 96 % of control
4) CCOC(=O)CCC(=O)NNc1ccccc1; 100 % of control
5) Cc1ccc(NC(=O)NCCBr)cc1; 101 % of control
6) NC(=O)c1ccc(N)nc1; 95 % of control
7) Cc1cn(C2CC(O)C(CO)O2)c(=O)n(CCCc2ccccc2)c1=O (stereo unspecified); 90 % of control
8) O=[N+]([O-])c1ccc2c(c1)Cc1c-2cc(I)c(O)c1I; 96 % of control
9) COc1ccc(CN2CCCN(Cc3ccc(OC)cc3OC)C2c2cc([N+](=O)[O-])ccc2O)c(OC)c1; 98 % of control
10) O=C1OC(c2ccccc2)=N/C1=C\c1ccc2c(c1)OCO2; 95 % of control
11) O=S(=O)(c1ccccc1)C1CCCCC1Cl (stereo unspecified); 95 % of control
12) CC(C)(CCC(=O)O)CCC(=O)O; 111 % of control
13) CC(C)CC(CC(C)C)=NO; 104 % of control
14) COC1CC(N=[N+]=[N-])C(OS(C)(=O)=O)C(C)O1 (stereo unspecified); 98 % of control
15) CCOC(=O)Cc1c(C)c2c(O)cc(O)cc2oc1=O; 97 % of control
16) CCC1CN1P1(=O)OCC(CC)([N+](=O)[O-])CO1 (stereo unspecified); 90 % of control
17) OCc1ccccc1CO; 95 % of control
18) CN(CC#N)c1ncnc(Cl)c1[N+](=O)[O-]; 98 % of control
19) C/C(=N\N=C(N)N)c1ccc(N2CCN(c3ccc(/C(C)=N/N=C(N)N)cc3)CC2)cc1; 94 % of control
20) Nc1ccc2c(c1)Cc1c(F)ccc(F)c1-2; 102 % of control
21) COc1c2c(c3c(c1O)c(=O)c1ccccc1n3C)OCO2; 90 % of control

====

- Test system: L1210 leukemia ip in BDF1 mice, survival T/C
- assay.explanation: NCI In Vivo Anticancer Drug Screen. Data for tumor model L1210 Leukemia (intraperitoneal) in B6D2F1 (BDF1) mice
- condition.description: endpoint: mean survival time; dose: 400.0 mg/kg/injection; schedule: Q01DX009 (ip); vehicle: Klucel (hydroxypropylcellulose) (HPC); higher = longer survival
Toxic doses and inconclusive results are not listed.
recorded.endpoint: T/C

1. NC(=S)SCCC(=O)O; 94 % of control
2. Nc1ccc(NS(=O)(=O)c2ccccc2)nc1; 93 % of control
3. O=C(NCCCl)NC1CCCCCCCCCCC1; 89 % of control
4. COC(=O)CC(=O)c1ccc(S(=O)(=O)F)cc1; 101 % of control
5. O=c1[nH]c2ccsc2c(=O)n1OS(=O)(=O)c1ccccc1; 88 % of control
6. O=[N+]([O-])c1ccccc1SNc1ccccc1; 107 % of control
7. c1ccc(COc2ccc3oc4ccccc4c3c2)cc1; 96 % of control
8. O=C(COCC(=O)N/N=C/c1c(O)ccc2ccccc12)N/N=C/c1c(O)ccc2ccccc12; 95 % of control
9. Cc1cccc(Cl)c1NC(=S)Nc1cccc(C(F)(F)F)c1; 96 % of control
10. c1ccc(C2=C(c3ccccc3)C23SCCS3)cc1; 98 % of control
11. Cc1c(Cl)cccc1NC(=O)C(c1ccccc1)c1ccccc1; 93 % of control
12. Cc1ccc2c(c1[N+](=O)[O-])C(=O)c1ccccc1C2=O; 111 % of control
13. CN(C)c1ccc(P(c2ccc(N(C)C)cc2)c2ccc(N(C)C)cc2)cc1; 87 % of control
14. CN1CNC(=O)NC1; 103 % of control
15. O=C(O)c1cc(=O)cc(C(=O)O)[nH]1; 92 % of control
16. O=C(Nc1ccc(Cl)c(Cl)c1)Oc1ccc(-c2ccccc2)cc1; 90 % of control
17. CCN(CC)C(N)=S; 100 % of control
18. CC(=O)OC12CCCC(=O)C1C1CC/C=C\CCC12 (centres undefined); 96 % of control
19. CC(=O)Nc1ccc(NC(=O)Nc2cc(Cl)ccc2C)cc1; 96 % of control
20. N#CC1c2ccccc2C=CN1C(=O)c1ccccc1 (centres undefined); 92 % of control
21. C=CCNC(=S)Nc1ccc(OC(=O)NC(C)(C)C)cc1; 89 % of control
22. O=C(NC1CCCCC1)C(=S)NC1CCCCC1; 98 % of control
23. C=C1C=C(C)N(C(=O)c2ccc(Cl)cc2)CCN1C(=O)c1ccc(Cl)cc1; 92 % of control
24. O=C(O)CCC(=O)Nc1ccc(F)cc1; 93 % of control
25. Cc1ccc(CNC(=O)NC(C)(C)C)cc1; 90 % of control
26. C/C(=N\NC(=O)c1ccccc1)c1ccc(-c2ccccc2)cc1; 94 % of control
27. CCCCCCCCCC(=O)N/N=C/c1c[nH]c2ccccc12; 100 % of control
28. CC(=O)OC1C=CN(C(C)=O)C(SC23CC4CC(CC(C4)C2)C3)C1O (centres undefined); 95 % of control
29. CCS(=O)c1c(Cl)c(Cl)c(Cl)c(Cl)c1Cl (centres undefined); 95 % of control

====

Each entry below lists one item and its recorded T/C value.
- Tested on: L1210 leukemia ip in BDF1 mice, survival T/C
- assay.explanation: NCI In Vivo Anticancer Drug Screen. Data for tumor model L1210 Leukemia (intraperitoneal) in B6D2F1 (BDF1) mice
- condition.description: endpoint: mean survival time; dose: 200.0 mg/kg/injection; schedule: Q01DX001 (ip); vehicle: saline with Tween-80; higher = longer survival
Toxic doses and inconclusive results are not listed.
recorded.endpoint: T/C

1) Nc1nc(SCC(=O)c2ccc(Cl)cc2)c2c(n1)SCC(c1ccc(Cl)cc1)=N2; 101 % of control
2) CC(=O)c1cccc(NC(=O)Oc2ccc(-c3ccccc3)cc2)c1; 90 % of control
3) CN(C)N=Nc1ccc([N+](=O)[O-])cc1C(N)=O; 104 % of control
4) Cc1c2c(cc3c1CCCC3)CCCC2; 93 % of control

====

- Tested on: L1210 leukemia ip in BDF1 mice, survival T/C
- assay.explanation: NCI In Vivo Anticancer Drug Screen. Data for tumor model L1210 Leukemia (intraperitoneal) in B6D2F1 (BDF1) mice
- condition.description: endpoint: mean survival time; dose: 200.0 mg/kg/injection; schedule: Q04DX003 (ip); vehicle: saline; higher = longer survival
Toxic doses and inconclusive results are not listed.
Each entry below lists one item and its recorded T/C value.
recorded.endpoint: T/C

1) Cc1nc2cnn(C)c2nc1C; 100 % of control
2) CCS(=O)(=O)CC; 107 % of control
3) CCN1CCC2CN(C(=N)N)CCN2C1=O (centres undefined); 103 % of control
4) NC(=O)C1(c2ccccc2)CC1; 93 % of control
5) Cc1cc(=O)[nH]cn1; 112 % of control
6) CC(=O)OC1C(OC(C)=O)C2C(C)(C)CCCC2(C)C2Cc3occc3C(C)C12 (centres undefined); 117 % of control
7) CC(CCOCC1CO1)OCC1CO1 (centres undefined); 105 % of control
8) CN(C)c1ccc(C(=O)O)cn1; 100 % of control
9) COc1ccc(NC(=S)Nc2ccccn2)cc1; 87 % of control
10) CCCCCCCCC1SC1CCCCCCCC(=O)N(C)c1ccccc1 (centres undefined); 99 % of control
11) O=C1C=C(Nc2cccc(O)c2)c2ccccc2C1=O; 97 % of control
12) O=CN(Cc1cnccn1)Cc1cnccn1; 96 % of control
13) Cc1ccc2c(c1)CCCN2C; 94 % of control
14) CC1=C/C(=N/N(C)C)CC(C)C1 (centres undefined); 109 % of control

====

- Tested on: L1210 leukemia ip in BDF1 mice, survival T/C
- assay.explanation: NCI In Vivo Anticancer Drug Screen. Data for tumor model L1210 Leukemia (intraperitoneal) in B6D2F1 (BDF1) mice
- condition.description: endpoint: mean survival time; dose: 12.5 mg/kg/injection; schedule: Q01DX009 (ip); vehicle: Klucel (hydroxypropylcellulose) (HPC); higher = longer survival
Toxic doses and inconclusive results are not listed.
Each entry below lists one item and its recorded T/C value.
recorded.endpoint: T/C

1) C/C(=N\NC(=O)C1CCCO1)c1cccc2ccccc12 (stereo not drawn); 97 % of control
2) Clc1ccc2sc3c(c2c1)CCNC3; 94 % of control
3) COc1ccccc1OCCOCCN(C)C1CCCCC1; 93 % of control
